- ASSAY_SYSTEM: glycerol dehydrogenase (GlyDH)
- Construct: His-tagged, produced and purified in house (details only in SI); multimeric zinc metalloenzyme; free enzyme
- METHOD_DESCRIPTION: NADH formation at […] nm, DHA dose series
- TEST_PARAMETERS: free enzyme; product inhibition; standard assay 100 mM glycerol, 2.5 mM NAD+, 100 mM phosphate pH 7.0, 30 °C
PROPERTY: pIC50
Note on pIC50: it is the negative log10 of concentration, concentration in mol/L.

### Prompt Reported pIC50 for O=C(CO)CO [DHA, dihydroxyacetone] : what is it?
### Response 3.48
